Parameter pKd: see the listing below.
Target: T1, IFN-α4a (human, UniProt P05014 24-189)
T1 construct: also called IFN-αM1
Test: ProteOn, one antigen concentration
In plain terms, pKd is the concentration in mol/L turned into minus its base-10 logarithm.

Examples from the recorded data:
IFWM3352 (antibody, V domains shown, VH IFWH624, VL IFWL1013; converted mAb; also called IFWB3087) VH: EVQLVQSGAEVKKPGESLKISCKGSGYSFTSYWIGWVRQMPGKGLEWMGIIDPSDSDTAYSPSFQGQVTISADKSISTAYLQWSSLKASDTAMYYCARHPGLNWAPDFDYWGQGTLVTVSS VL: DIQMTQSPSSLSASVGDRVTITCRASQSINNFLNWYQQKPGKAPKLLIYFASSLQSGVPSRFSGSGSGTDFTLTISSLQPEDFATYYCQQSFNLPITFGQGTKVEIK
9.57
IFWM3351 (antibody, V domains shown, VH IFWH624, VL IFWL1010; converted mAb; also called IFWB3086) VH: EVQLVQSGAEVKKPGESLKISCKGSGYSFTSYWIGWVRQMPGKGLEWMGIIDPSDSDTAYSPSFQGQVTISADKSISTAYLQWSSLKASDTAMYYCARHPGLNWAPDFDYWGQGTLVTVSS VL: DIQMTQSPSSLSASVGDRVTITCRASQSIDGALNWYQQKPGKAPKLLIYFASSLQSGVPSRFSGSGSGTDFTLTISSLQPEDFATYYCQQSFDFPLTFGQGTKVEIK
9.95

// query Look at this binder and give its reported pKd. IFWM3361 (antibody, V domains shown, VH IFWH624, VL IFWL1051; converted mAb; also called IFWB3096) VH: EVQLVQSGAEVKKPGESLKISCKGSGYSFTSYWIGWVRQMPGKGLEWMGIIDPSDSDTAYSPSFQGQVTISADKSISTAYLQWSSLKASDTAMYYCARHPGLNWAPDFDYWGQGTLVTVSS VL: DIQMTQSPSSLSASVGDRVTITCRASQSIADFLNWYQQKPGKAPKLLIYFASSLQSGVPSRFSGSGSGTDFTLTISSLQPEDFATYYCQQSHSFPLTFGQGTKVEIK
// result 9.21

// query Return reported pKd; argument: IFWM3306 (antibody, V domains shown, VH IFWH591, VL IFWL1000; converted mAb; also called IFWB3041) VH: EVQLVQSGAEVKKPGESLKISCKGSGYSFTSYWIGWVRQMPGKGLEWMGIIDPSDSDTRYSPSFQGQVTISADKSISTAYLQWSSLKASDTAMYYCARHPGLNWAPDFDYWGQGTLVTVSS VL: DIQMTQSPSSLSASVGDRVTITCRASQSITNFLNWYQQKPGKAPKLLIYFASSLQSGVPSRFSGSGSGTDFTLTISSLQPEDFATYYCQQSLDFPLTFGQGTKVEIK
// result 9.83

// query Reported pKd for IFWM3328 (antibody, V domains shown, VH IFWH591, VL IFWL1064; converted mAb; also called IFWB3063) VH: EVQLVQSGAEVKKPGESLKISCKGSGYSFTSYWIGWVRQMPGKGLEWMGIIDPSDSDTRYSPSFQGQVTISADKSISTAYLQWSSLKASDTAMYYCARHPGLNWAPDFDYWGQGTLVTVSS VL: DIQMTQSPSSLSASVGDRVTITCRASQSINNLNWYQQKPGKAPKLLIYWASSLQSGVPSRFSGSGSGTDFTLTISSLQPEDFATYYCQQGYDTPFTFGQGTKVEIK : what is it?
// result 9.39
